IC50 reference
Molecular target: DCN1-UBC12 interaction (Homo sapiens (Human))
Sequence (Q96GG9 60-248 limits assumed): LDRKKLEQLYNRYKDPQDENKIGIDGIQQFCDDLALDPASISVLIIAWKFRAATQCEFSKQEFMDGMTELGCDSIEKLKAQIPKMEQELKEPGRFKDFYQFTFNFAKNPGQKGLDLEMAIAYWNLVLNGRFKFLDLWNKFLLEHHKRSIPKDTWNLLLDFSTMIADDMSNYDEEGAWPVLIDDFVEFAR
Assay: biochemical
Assay type: binding
Conditions: read-out: TR-FRET IC50
Assay Metric: IC50

> print(dat)
                                    compound  assay.metric  experimental.value
 1  O=C(Nc1cc(F)cc(C(F)(F)F)c1)N(Cc1ccccc1)C1CCN(Cc2ncc[nH]2)CC1 [A225]          IC50           > 26.1 µM
 2  CCCC(C)N1CCC(N(Cc2ccccc2)C(=O)Nc2ccc(C(N)=O)cc2)CC1 (stereo not drawn) [A258]          IC50           > 62.2 µM
 3  CCCC(C)N1CCC(N(Cc2cccc(CNC(=O)CCl)c2)C(=O)Nc2cccc(C(F)(F)F)c2)CC1 (stereo not drawn) [A256]          IC50           > 60.4 µM
 4  COCCn1ccc(NC(=O)NC2CCN(Cc3ccccc3)CC2)n1 [B35]          IC50           > 55.9 µM
 5  CC1CN(Cc2ccccc2)CCC1N(C)C(=O)Nc1cn[nH]c1 (stereo not drawn) [B24]          IC50           > 15.2 µM
 6  CN(C)c1ncncc1NC(=O)NC1CCN(Cc2ccc(F)cc2)CC1 [B109]          IC50           > 72.8 µM
 7  C=CS(=O)(=O)NCc1cccc(CN(C(=O)Nc2cccc(C(F)(F)F)c2)C2CCN(C(C)CCC)CC2)c1 (stereo not drawn) [drawing 849]          IC50           < 0.01 µM
 8  CCCC(C)N1CCC(N(Cc2ccccc2)C(=O)Nc2cc(C)oc2C(F)(F)F)CC1 (stereo not drawn) [A255]          IC50           > 60.2 µM
 9  CCCCN1CCC(N(Cc2ccccc2)C(=O)Nc2cccc(C#N)c2)CC1 [A242]          IC50           > 52.5 µM
10  Cc1cccc(NC(=O)NC2CCN(Cc3ccccc3)CC2)c1 [B57]          IC50           > 67.6 µM
11  CCCCN1CCC(N(Cc2ccccc2)C(=O)Nc2cncc(C(F)(F)F)c2)CC1 [A262]          IC50           > 63.4 µM
12  CCOc1ccc(C(=O)N2CCCC(c3nc4ccccc4s3)C2)cc1 (stereo not drawn) [D25]          IC50           > 67.6 µM
13  CC(c1ccc(Cl)cc1)N1CCC(N(Cc2ccccc2)C(=O)Nc2cc(F)cc(C(F)(F)F)c2)CC1 (stereo not drawn) [A216]          IC50           > 23.8 µM
14  CC(N1CCC(N(Cc2ccccc2)C(=O)Nc2cccc(C(F)(F)F)c2)CC1)C(F)(F)F (stereo not drawn) [A223]          IC50           > 25.3 µM
15  CCCC(C)N1CCC(N(Cc2ccccc2)C(=O)Nc2ccccc2Sc2ccccc2)CC1 (stereo not drawn) [A303]          IC50           > 89.9 µM
16  CCCN1CCC(NC(=O)Nc2ccc(Cl)c(Cl)c2)CC1 [B56]          IC50           > 67.6 µM
17  COc1ccccc1NC(=O)N(Cc1ccc(C)o1)C1CCN(Cc2ccccc2)CC1 [B90]          IC50           > 67.6 µM
18  Cn1cncc1CN1CCC(N(Cc2ccccc2)C(=O)Nc2cc(F)cc(C(F)(F)F)c2)CC1 [A221]          IC50           > 24.8 µM
19  O=C(CN1CCN(c2ccccc2)CC1)Nc1cccc(C(F)(F)F)c1 [B37]          IC50           > 60.6 µM
20  CCCC(C)N1CCC(N(Cc2ccccc2)C(=O)Nc2cc(Br)ccc2Cl)CC1 (stereo not drawn) [A267]          IC50           > 66.9 µM
21  C=CS(=O)(=O)NCCN(C(=O)Nc1cccc(C(F)(F)F)c1)C1CCN(C(C)CCC)CC1 (stereo not drawn) [drawing 839]          IC50             > 41 µM
